Experiment: Selectivity index, ratio of IC50 for cytotoxicity against mouse NIH3T3 cells to IC50 for cytotoxicity against human HT-29 cells
Format: toxicity, cell-based
Settings: NIH3T3 cells versus HT-29 cells, read-out: Ratio IC50

- SMILES DATA: "Cc1cc(-c2nc3cc(F)ccc3o2)ccc1NC(=O)CN1CCN(CCCN(C)C)CC1"
  selectivity ratio: 9.8
- SMILES DATA: "Cc1ccc2oc(-c3ccc(NC(=O)CN4CCN(CCN(C)C)CC4)cc3)nc2c1"
  selectivity ratio: 16.2
- SMILES DATA: "CN(C)CCCN1CCN(CC(=O)Nc2ccc(-c3nc4ccccc4o3)cc2)CC1"
  selectivity ratio: 1.57
- SMILES DATA: "Cc1cc(-c2nc3cc(Cl)ccc3o2)ccc1NC(=O)CN1CCN(CCCN(C)C)CC1"
  selectivity ratio: 3.12
- SMILES DATA: "CN(C)CCCN1CCN(CC(=O)Nc2ccc(-c3nc4cc(F)ccc4o3)cc2)CC1"
  selectivity ratio: 8.46
- SMILES DATA: "Cc1cc(-c2nc3ccccc3o2)ccc1NC(=O)CCl"
  selectivity ratio: 0.88
- SMILES DATA: "CN(C)CCN1CCN(CC(=O)Nc2ccc(-c3nc4cc(Cl)ccc4o3)cc2)CC1"
  selectivity ratio: 6.41
- SMILES DATA: "Cc1ccc2oc(-c3ccc(NC(=O)CN4CCN(CCCN(C)C)CC4)cc3)nc2c1"
  selectivity ratio: 6.79
- SMILES DATA: "Cc1cc(-c2nc3cc(F)ccc3o2)ccc1NC(=O)CN1CCN(CCN(C)C)CC1"
  selectivity ratio: 9.41
- SMILES DATA: "Cc1ccc2oc(-c3ccc(NC(=O)CCl)cc3)nc2c1"
  selectivity ratio: 0.76
- SMILES DATA: "CN(C)CCN1CCN(CC(=O)Nc2ccc(-c3nc4ccccc4o3)cc2)CC1"
  selectivity ratio: 6.74
- SMILES DATA: "Cc1cc(-c2nc3ccccc3o2)ccc1NC(=O)CN1CCN(CCCN(C)C)CC1"
  selectivity ratio: 2.17
